biological target: BSEP (Homo sapiens, UniProt O95342); test: ATP-dependent uptake of test article by BSEP-transfected Sf9 membrane vesicles (substrate assessment); settings: test article 1 μM
Sequence (O95342 whole entry): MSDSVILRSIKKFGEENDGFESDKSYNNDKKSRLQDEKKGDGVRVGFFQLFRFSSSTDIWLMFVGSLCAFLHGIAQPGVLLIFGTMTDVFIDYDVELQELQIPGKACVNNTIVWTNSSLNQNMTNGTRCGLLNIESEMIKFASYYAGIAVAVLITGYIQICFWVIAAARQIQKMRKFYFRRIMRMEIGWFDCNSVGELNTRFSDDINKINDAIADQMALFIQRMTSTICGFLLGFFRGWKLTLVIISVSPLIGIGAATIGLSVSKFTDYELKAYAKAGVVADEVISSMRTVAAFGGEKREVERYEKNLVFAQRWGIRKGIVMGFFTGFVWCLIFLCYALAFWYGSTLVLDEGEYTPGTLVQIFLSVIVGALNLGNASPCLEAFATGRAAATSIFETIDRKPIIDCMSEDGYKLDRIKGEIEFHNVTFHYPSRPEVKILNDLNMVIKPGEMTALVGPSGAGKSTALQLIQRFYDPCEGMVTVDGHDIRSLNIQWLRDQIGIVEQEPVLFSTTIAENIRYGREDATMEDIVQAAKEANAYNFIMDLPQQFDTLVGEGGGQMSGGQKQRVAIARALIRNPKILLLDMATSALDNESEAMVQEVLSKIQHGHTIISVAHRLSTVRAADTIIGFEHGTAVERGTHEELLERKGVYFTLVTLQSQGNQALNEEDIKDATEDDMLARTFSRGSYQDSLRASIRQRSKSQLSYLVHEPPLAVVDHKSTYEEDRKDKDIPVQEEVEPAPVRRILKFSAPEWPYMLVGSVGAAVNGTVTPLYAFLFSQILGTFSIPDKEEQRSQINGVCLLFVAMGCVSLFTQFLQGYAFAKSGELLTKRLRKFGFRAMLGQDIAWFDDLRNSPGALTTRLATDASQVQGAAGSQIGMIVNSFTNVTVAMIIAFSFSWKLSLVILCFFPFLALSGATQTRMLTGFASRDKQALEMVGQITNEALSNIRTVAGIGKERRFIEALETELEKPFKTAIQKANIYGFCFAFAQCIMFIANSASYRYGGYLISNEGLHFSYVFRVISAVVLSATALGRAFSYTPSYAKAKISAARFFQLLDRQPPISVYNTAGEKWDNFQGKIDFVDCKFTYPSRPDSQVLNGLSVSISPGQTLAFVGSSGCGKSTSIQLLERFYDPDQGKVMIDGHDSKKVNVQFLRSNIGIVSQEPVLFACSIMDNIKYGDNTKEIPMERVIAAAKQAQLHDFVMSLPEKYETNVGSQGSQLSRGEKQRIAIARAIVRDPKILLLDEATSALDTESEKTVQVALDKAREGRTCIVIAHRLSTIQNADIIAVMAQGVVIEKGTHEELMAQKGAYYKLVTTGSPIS
Documented Uptake Activity of test article, Mg-ATP across a set of compounds
Could you give me the number in pmol/minute/mg protein? Just the number is fine.

COMPOUND	Uptake Activity of test article, Mg-ATP (pmol/minute/mg protein)
O=C(O)Cc1ccccc1	26.9

Next, consider the following compound.
Measured Uptake Activity of test article, Mg-ATP of C[C@H](CCC(=O)NCC(=O)O)[C@H]1CC[C@H]2[C@@H]3[C@@H](O)C[C@@H]4C[C@H](O)CC[C@]4(C)[C@H]3CC[C@]12C : 11.2

###

target: BSEP (Homo sapiens, UniProt O95342); assay: in vitro
RECORDED_ENDPOINT: activity at 30 min, 250 μM (%)
Could you give me the number in %? Just the number is fine.

Measured activity at 30 min, 250 μM of O=C(O)CCCc1ccccc1 [Sodium phenylbutyrate] : 82.4

###

test: Solubility in stock solvent and assay buffers; details: methanol, organic solvent or mixture
RECORDED_ENDPOINT: solubility (mM)
Could you give me the number in mM? Just the number is fine.

COMPOUND	solubility [mM]
O=C(O)CCCc1ccccc1 [Sodium phenylbutyrate]	50

Measured solubility of C[C@H](CCC(=O)O)[C@H]1CC[C@H]2[C@@H]3[C@@H](O)C[C@@H]4C[C@H](O)CC[C@]4(C)[C@H]3CC[C@]12C : 100

Measured solubility of O=C(O)Cc1ccccc1 : 1500

Measured solubility of C[C@H](CCC(=O)NCCS(=O)(=O)O)[C@H]1CC[C@H]2[C@@H]3[C@@H](O)C[C@@H]4C[C@H](O)CC[C@]4(C)[C@H]3CC[C@]12C : 10

Measured solubility of C[C@H](CCC(=O)NCC(=O)O)[C@H]1CC[C@H]2[C@@H]3[C@@H](O)C[C@@H]4C[C@H](O)CC[C@]4(C)[C@H]3CC[C@]12C : 50

###

target: BSEP (Homo sapiens); test: ATP-dependent uptake of test article by BSEP-transfected Sf9 membrane vesicles (substrate assessment); conditions: test article 1 μM
Marks after values point to notes of the source that are not given here.
RECORDED_ENDPOINT: Uptake Activity of test article, Mg-AMP

Worked examples follow.
MOLECULE	Uptake Activity of test article, Mg-AMP
C[C@H](CCC(=O)O)[C@H]1CC[C@H]2[C@@H]3[C@@H](O)C[C@@H]4C[C@H](O)CC[C@]4(C)[C@H]3CC[C@]12C [Ursodeoxycholic acid]	BLQ
C[C@H](CCC(=O)NCCS(=O)(=O)O)[C@H]1CC[C@H]2[C@@H]3[C@@H](O)C[C@@H]4C[C@H](O)CC[C@]4(C)[C@H]3CC[C@]12C [Tauroursodeoxycholic acid]	4.90^c pmol/minute/mg protein
O=C(O)CCCc1ccccc1 [Sodium phenylbutyrate]	BLQ
O=C(O)Cc1ccccc1 [Phenylacetic acid]	2.71^b pmol/minute/mg protein

Measured Uptake Activity of test article, Mg-AMP of C[C@H](CCC(=O)NCC(=O)O)[C@H]1CC[C@H]2[C@@H]3[C@@H](O)C[C@@H]4C[C@H](O)CC[C@]4(C)[C@H]3CC[C@]12C [Glycoursodeoxycholic acid] : BLQ

###

Documented activity at 30 min, 50 μM across a set of molecules
biological target: BSEP (Homo sapiens, UniProt O95342); test: in vitro
Could you give me the number in %? Just the number is fine.

MOLECULE	UNIT_OF_MEASUREMENT	MEASURED_RESULT
C[C@H](CCC(=O)NCCS(=O)(=O)O)[C@H]1CC[C@H]2[C@@H]3[C@@H](O)C[C@@H]4C[C@H](O)CC[C@]4(C)[C@H]3CC[C@]12C [Tauroursodeoxycholic acid]	%	5.14

Measured activity at 30 min, 50 μM of C[C@H](CCC(=O)O)[C@H]1CC[C@H]2[C@@H]3[C@@H](O)C[C@@H]4C[C@H](O)CC[C@]4(C)[C@H]3CC[C@]12C [Ursodeoxycholic acid] : 64

###

target: BSEP (Homo sapiens, UniProt O95342); experiment: ATP-dependent uptake of test article by BSEP-transfected Sf9 membrane vesicles (substrate assessment); conditions: test article 10 μM
Documented Uptake Activity of test article, Mg-ATP across a set of molecules
Could you give me the number in pmol/minute/mg protein? Just the number is fine.

Measured Uptake Activity of test article, Mg-ATP of C[C@H](CCC(=O)NCCS(=O)(=O)O)[C@H]1CC[C@H]2[C@@H]3[C@@H](O)C[C@@H]4C[C@H](O)CC[C@]4(C)[C@H]3CC[C@]12C [Tauroursodeoxycholic acid] : 24.7

Measured Uptake Activity of test article, Mg-ATP of O=C(O)Cc1ccccc1 [Phenylacetic acid] : 884

Measured Uptake Activity of test article, Mg-ATP of C[C@H](CCC(=O)NCC(=O)O)[C@H]1CC[C@H]2[C@@H]3[C@@H](O)C[C@@H]4C[C@H](O)CC[C@]4(C)[C@H]3CC[C@]12C [Glycoursodeoxycholic acid] : 14.2

###

biological target: BSEP (Homo sapiens, UniProt O95342); assay: ATP-dependent uptake of test article by BSEP-transfected Sf9 membrane vesicles (substrate assessment); conditions: test article 1 μM + cyclosporine 20 μM
Marks after values point to notes of the source that are not given here.

COMPOUND	Uptake Activity of test article, Mg-AMP
C[C@H](CCC(=O)NCC(=O)O)[C@H]1CC[C@H]2[C@@H]3[C@@H](O)C[C@@H]4C[C@H](O)CC[C@]4(C)[C@H]3CC[C@]12C [Glycoursodeoxycholic acid]	BLQ
O=C(O)Cc1ccccc1 [Phenylacetic acid]	7.60^c pmol/minute/mg protein
C[C@H](CCC(=O)NCCS(=O)(=O)O)[C@H]1CC[C@H]2[C@@H]3[C@@H](O)C[C@@H]4C[C@H](O)CC[C@]4(C)[C@H]3CC[C@]12C [Tauroursodeoxycholic acid]	BLQ
C[C@H](CCC(=O)O)[C@H]1CC[C@H]2[C@@H]3[C@@H](O)C[C@@H]4C[C@H](O)CC[C@]4(C)[C@H]3CC[C@]12C [Ursodeoxycholic acid]	BLQ

###

target: UniProt:O95342; test: in vitro
Documented potency estimated from few doses at 30 min across a set of compounds

Worked examples follow.
COMPOUND	MEASURED_RESULT
C[C@H](CCC(=O)NCCS(=O)(=O)O)[C@H]1CC[C@H]2[C@@H]3[C@@H](O)C[C@@H]4C[C@H](O)CC[C@]4(C)[C@H]3CC[C@]12C [Tauroursodeoxycholic acid]	< 5 µM
C[C@H](CCC(=O)O)[C@H]1CC[C@H]2[C@@H]3[C@@H](O)C[C@@H]4C[C@H](O)CC[C@]4(C)[C@H]3CC[C@]12C [Ursodeoxycholic acid]	< 500 µM
C[C@H](CCC(=O)NCC(=O)O)[C@H]1CC[C@H]2[C@@H]3[C@@H](O)C[C@@H]4C[C@H](O)CC[C@]4(C)[C@H]3CC[C@]12C [Glycoursodeoxycholic acid]	< 10 µM

Next, consider the following compound.
Measured potency estimated from few doses at 30 min of O=C(O)Cc1ccccc1 [Phenylacetic acid] : < 7500 µM

###

assay: Solubility in stock solvent and assay buffers; details: assay buffers, aqueous buffer, kinetic from dmso stock
RECORDED_ENDPOINT: solubility (µM)
Could you give me the number in µM? Just the number is fine.

Worked examples follow.
COMPOUND	solubility / µM
C[C@H](CCC(=O)NCC(=O)O)[C@H]1CC[C@H]2[C@@H]3[C@@H](O)C[C@@H]4C[C@H](O)CC[C@]4(C)[C@H]3CC[C@]12C	100
C[C@H](CCC(=O)O)[C@H]1CC[C@H]2[C@@H]3[C@@H](O)C[C@@H]4C[C@H](O)CC[C@]4(C)[C@H]3CC[C@]12C	500
C[C@H](CCC(=O)NCCS(=O)(=O)O)[C@H]1CC[C@H]2[C@@H]3[C@@H](O)C[C@@H]4C[C@H](O)CC[C@]4(C)[C@H]3CC[C@]12C	50

Measured solubility of O=C(O)CCCc1ccccc1 [Sodium phenylbutyrate] : 250

###

Documented ATP-dependent BSEP uptake activity relative to AMP uptake across a set of compounds
target: BSEP (Homo sapiens, UniProt O95342); experiment: ATP-dependent uptake of test article by BSEP-transfected Sf9 membrane vesicles (substrate assessment); settings: test article 1 and 10 μM

O=C(O)Cc1ccccc1 > 2 fold
C[C@H](CCC(=O)NCCS(=O)(=O)O)[C@H]1CC[C@H]2[C@@H]3[C@@H](O)C[C@@H]4C[C@H](O)CC[C@]4(C)[C@H]3CC[C@]12C > 2 fold
C[C@H](CCC(=O)O)[C@H]1CC[C@H]2[C@@H]3[C@@H](O)C[C@@H]4C[C@H](O)CC[C@]4(C)[C@H]3CC[C@]12C < 2 fold

Measured ATP-dependent BSEP uptake activity relative to AMP uptake of C[C@H](CCC(=O)NCC(=O)O)[C@H]1CC[C@H]2[C@@H]3[C@@H](O)C[C@@H]4C[C@H](O)CC[C@]4(C)[C@H]3CC[C@]12C : > 2 fold
